# procedure text: Acute Toxicity in Rats
# Assay type: in vivo, rat
# condition notes: rat, in vivo, po; P.O., rats; range in parentheses; read-out: Calculated LD50
Where a name gives a salt, the structure may show the parent alone.
Each entry below carries its reported LD50.

>  <compound>
CCNC(C)Cc1cccc(C(F)(F)F)c1 (stereo not drawn) [Fenfluramine, reference compound]

>  <LD50>
225 mg/kg

$$$$
>  <compound>
C=COCCNC(C)Cc1ccc(Cl)cc1 (stereo not drawn) [HCl Salt, R=Cl]

>  <LD50>
950 mg/kg

$$$$
>  <compound>
C=COCCNC(C)Cc1cccc(C(F)(F)F)c1 (stereo not drawn) [HCl Salt, R=CF3]

>  <LD50>
1010 mg/kg

$$$$
